Sourced from patent US20230134571A1

Biological target: HIV Env of isolate R2184.c04 (clade AE) (HIV)
Test: cell-based or functional assay
Reported IC80 (µg/ml) with constrains values follow for various binders
I only need the number, in µg/mL, no unit after it.

Known IC80 (µg/ml) with constrains results, listed for orientation:
ePGDM13 (antibody, V domains shown) VH: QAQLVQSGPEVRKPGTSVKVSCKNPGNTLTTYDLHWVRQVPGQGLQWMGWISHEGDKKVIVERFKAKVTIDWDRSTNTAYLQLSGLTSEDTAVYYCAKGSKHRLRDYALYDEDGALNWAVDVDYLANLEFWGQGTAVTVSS VL: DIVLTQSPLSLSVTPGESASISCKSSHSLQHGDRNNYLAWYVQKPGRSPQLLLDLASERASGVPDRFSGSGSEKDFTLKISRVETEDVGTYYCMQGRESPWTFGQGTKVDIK :: 0.019
ePGDM9 (antibody, V domains shown) VH: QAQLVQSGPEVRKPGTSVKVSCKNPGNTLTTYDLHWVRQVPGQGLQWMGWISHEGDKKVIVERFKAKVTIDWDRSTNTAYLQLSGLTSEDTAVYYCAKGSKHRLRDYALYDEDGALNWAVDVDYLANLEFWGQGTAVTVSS VL: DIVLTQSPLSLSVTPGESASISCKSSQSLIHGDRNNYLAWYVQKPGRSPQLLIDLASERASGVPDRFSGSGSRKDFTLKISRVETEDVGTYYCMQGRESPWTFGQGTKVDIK :: 0.011

Looking for the measured IC80 (µg/ml) with constrains of ePGDM5 (antibody, V domains shown) VH: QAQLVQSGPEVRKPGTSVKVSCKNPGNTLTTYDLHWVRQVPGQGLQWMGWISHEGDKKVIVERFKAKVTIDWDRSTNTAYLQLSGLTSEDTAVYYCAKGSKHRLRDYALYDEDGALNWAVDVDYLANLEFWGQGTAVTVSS VL: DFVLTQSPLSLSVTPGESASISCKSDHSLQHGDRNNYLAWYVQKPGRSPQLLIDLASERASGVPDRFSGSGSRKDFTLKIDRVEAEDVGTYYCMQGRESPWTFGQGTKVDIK , can you help?
0.017

Looking for the measured IC80 (µg/ml) with constrains of PGDM1400 (antibody, V domains shown) VH: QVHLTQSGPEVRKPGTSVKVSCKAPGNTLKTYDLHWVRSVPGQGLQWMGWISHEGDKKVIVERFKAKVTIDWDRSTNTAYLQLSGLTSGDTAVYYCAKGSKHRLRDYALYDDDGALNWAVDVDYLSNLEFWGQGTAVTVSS VL: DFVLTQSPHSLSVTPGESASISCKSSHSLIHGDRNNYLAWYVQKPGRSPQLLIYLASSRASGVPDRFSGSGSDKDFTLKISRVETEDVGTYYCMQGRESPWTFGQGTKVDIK , can you help?
0.022
